Assay: chemical genetic growth profiling, strain panel (AID 1159580);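 also: tested at 20 µM; growth read once vehicle control cultures reached saturation at 30 °C; 1 = growth at the plate median or of vehicle wells; lower values mean less growth of the strain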
Settings: S. cerevisiae deletion strains, growth OD, locus YLR027C, strain aat2, stronger effect = lower value
In all, about 5,500 compounds went through this assay and about 2,000 (36%) were called active. Not shown: some 18% with an inconclusive outcome. The list shows a part of the results.
Below, each entry is listed alongside its reported normalized growth.
Number, no unit, nothing else.

Take a look at these entries with their results.
COc1cc(OC)c2c(=O)c(-c3ccc4c(c3)OCO4)coc2c1
0.979
CC(C(=O)O)c1ccc(N2Cc3ccccc3C2=O)cc1 (configuration not stated)
0.985
O=C(CCCN1CC=C(n2c(=O)[nH]c3ccccc32)CC1)c1ccc(F)cc1
0.979
CN(C)c1nc(N(C)C)nc(N(C)C)n1
0.969
Fc1ccc(C(c2ccc(F)cc2)N2CCN(C/C=C/c3ccccc3)CC2)cc1
0.306

For the compound `CC1(C)C=Cc2c(cc3occ(-c4ccc5c(c4)OCO5)c(=O)c3c2O)O1` , report normalized growth. 0.943

For the compound `Cc1cc(C)nc(NS(=O)(=O)c2ccc(N)cc2)n1` , report normalized growth. 0.985

For the compound COc1cc(OC)c2c(c1Cl)OC1(C2=O)C(O)=CC(=O)CC1C (configuration not stated) , report normalized growth. 1.03

For the compound `CC(C)=CCc1c(O)cc2occ(-c3ccc4c(c3)OCO4)c(=O)c2c1O` , report normalized growth. 0.918

For the compound `CCCc1nc(C(C)(C)O)c(C(=O)OCc2oc(=O)oc2C)n1Cc1ccc(-c2ccccc2-c2nn[nH]n2)cc1` , report normalized growth. 0.984

For the compound CC(C)(O)CC[C@@H](O)[C@](C)(O)C1CC[C@@]2(O)C3=CC(=O)C4C[C@@H](O)[C@@H](O)C[C@]4(C)C3CC[C@]12C (some centres not stated) , report normalized growth. 1.01

For the compound `COc1c(O)cc(O)cc1O` , report normalized growth. 0.985

----------
Assay: chemical genetic growth profiling, strain panel (AID 1159580);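 also: tested at 20 µM; growth read once vehicle control cultures reached saturation at 30 °C; 1 = growth at the plate median or of vehicle wells; lower values mean less growth of the strain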
Conditions: S. cerevisiae deletion strains, growth OD, locus YER155C, strain BEM2 (second series)
The whole screen tested about 5,500 compounds, of which about 2,000 (36%) were called active. About 18% were inconclusive and are not listed. Rule as the data show it: active = normalized growth mostly below about 0.91 (no sharp cut-off); inconclusive = no clear call, values can overlap the other calls; inactive = mostly above about 0.92. The list shows a part of the results.
The reply should name one outcome from active, inactive

Example cases with answers are listed next.
CN1CCN(C(c2ccccc2)c2ccccc2)CC1
inactive
COc1cc2ccc(=O)oc2c2ccoc12
active
COc1cc(O)c(C(=O)O)c(O)c1
inactive
COc1cc2ccc(=O)oc2c(OC)c1OC
inactive
CN1Cc2c(N)cccc2C(c2ccccc2)C1 (centres undefined)
inactive
CSCCC(NC=O)C(=O)NC(CC(C)C)C(=O)NC(Cc1ccccc1)C(=O)O (centres undefined)
inactive

Tell me the recorded outcome of this test for `FC(F)(F)COCC(F)(F)F` . inactive

Tell me the recorded outcome of this test for `O=c1ccc2ccc(O)c(O)c2o1` . inactive

Tell me the recorded outcome of this test for `CC1(C)C[C@@H]2C(=O)CC[C@H]3O[C@]3(C)CC[C@H]21` . inactive

Tell me the recorded outcome of this test for `CC(C)=CCC/C(C)=C/COc1ccc2ccc(=O)oc2c1` . inactive

Tell me the recorded outcome of this test for CCOC(=O)C1=C(C)NC(C)=C(C(=O)OC)C1c1cccc([N+](=O)[O-])c1 (centres undefined) . inactive

Tell me the recorded outcome of this test for `O=C(/C=C/C(=O)Oc1ccccc1C(=O)O)Oc1ccccc1C(=O)O` . inactive

Tell me the recorded outcome of this test for COc1cc(OC)c2c(c1Cl)OC1(C2=O)C(O)=CC(=O)CC1C (centres undefined) . inactive

Tell me the recorded outcome of this test for `Cc1cc(O)c2c(c1O)C(=O)c1c(O)cc(C)c(O)c1C2=O` . inactive

Tell me the recorded outcome of this test for `Cc1cc(C)nc(NS(=O)(=O)c2ccc(N)cc2)n1` . inactive

Tell me the recorded outcome of this test for `O=C(O)c1cc2cc(Cl)ccc2[nH]1` . inactive

Tell me the recorded outcome of this test for `CC(C)=CCOc1c2occc2cc2ccc(=O)oc12` . active
